# Tested on: barnyardgrass
# Method Description: Test B pre-/postemergence herbicide test
# Assay type: in vivo, Echinochloa crus-galli
# Conditions Used: postemergence, 500 g ai/ha; scale 0 to 100, 0 is no effect, 100 is complete control
In this section we review reported Barnyardgrass plant response rating values for a set of compounds.

Here is how some compounds turned out for Barnyardgrass plant response rating.
Compound	Target System	Barnyardgrass plant response rating
C=CCNC(=O)c1ccc(F)c(NC(=O)c2nn(C(C)(C)C)nc2CC)c1 [Compound 383]	barnyardgrass	0
CCc1nn(C(C)(C)C)nc1C(=O)Nc1cccc(C(=O)N(C)CC)c1 [Compound 384]	barnyardgrass	30
CCn1nc(C(C)(C)C)cc1C(=O)Nc1cc(C(=S)N(C)C)ccn1 [Compound 334]	barnyardgrass	60
C=CCN(C)C(=O)c1cccc(NC(=O)c2cc(C(C)(C)C)nn2CC)c1 [Compound 285]	barnyardgrass	10
CCn1nc(C(C)(C)C)cc1C(=O)Nc1cc(OCCF)ccc1F [Compound 350]	barnyardgrass	0

-- ask Item C#CCOC(=O)c1cccc(NC(=O)c2cc(C(C)(C)C)nn2C)n1 [Compound 317] : provide Barnyardgrass plant response rating
-- reply 0

-- ask Item CCOC(=O)c1cccc(NC(=O)c2nn(C(C)(C)CC)nc2CC)c1 [Compound 375] : provide Barnyardgrass plant response rating
-- reply 70

* * *

In this section we review reported Velvetleaf plant response rating (0 to 100 scale) values for a set of molecules.
# Test system: velvetleaf
# Method Description: Test B pre-/postemergence herbicide test
# Assay type: in vivo, Abutilon theophrasti
# Conditions Used: 125 g ai/ha; 0 = no effect, 100 = complete control; preemergence
Respond with the number and no other words.

Here is how some molecules turned out for Velvetleaf plant response rating (0 to 100 scale).
CCn1nc(C(C)(C)C)c(F)c1C(=O)Nc1cccc(C(=O)N(C)C)n1 20
CCc1nn(C(C)(C)C)cc1C(=O)Nc1cc(C(=O)N(CC)CC)ccc1F 30
CCN(CC)C(=O)c1cc(NC(=O)c2cc(C(C)(C)C)nn2CC)c(F)cc1F 0

-- ask Lab note: velvetleaf assay, enter Velvetleaf plant response rating (0 to 100 scale) for `CCNC(=O)c1cccc(NC(=O)c2sc(C(C)(C)C)nc2CC)n1` here
-- reply 0

-- ask Lab note: velvetleaf assay, enter Velvetleaf plant response rating (0 to 100 scale) for `CCc1nc(C(C)(C)C)sc1C(=O)Nc1cccc(C(=O)N(C)C)c1` here
-- reply 100

-- ask Lab note: velvetleaf assay, enter Velvetleaf plant response rating (0 to 100 scale) for `CCNC(=O)c1cccc(NC(=O)c2nn(C(C)(C)C)cc2Cl)c1` here
-- reply 0

-- ask Lab note: velvetleaf assay, enter Velvetleaf plant response rating (0 to 100 scale) for `CCNC(=O)c1cccc(NC(=O)c2sc(C(C)(C)C)nc2C)c1` here
-- reply 0

-- ask Lab note: velvetleaf assay, enter Velvetleaf plant response rating (0 to 100 scale) for `CCNC(=O)c1cccc(NC(=O)c2cn(C(C)(C)C)nc2C)c1` here
-- reply 10

-- ask Lab note: velvetleaf assay, enter Velvetleaf plant response rating (0 to 100 scale) for `C=CCNC(=O)c1cccc(NC(=O)c2sc(C(C)(C)C)nc2CC)c1` here
-- reply 20

-- ask Lab note: velvetleaf assay, enter Velvetleaf plant response rating (0 to 100 scale) for `C=CCNC(=O)c1ccc(F)c(NC(=O)c2sc(CC)nc2C(C)(C)C)c1` here
-- reply 30
